- System: ARH-77
- EXPERIMENT_NOTES: 8-day growth inhibition
- Assay type: cell-based
- PARTICULARS: Myeloma, ARH-77, 8-day assay
pIC50: −log10 of the molar value.
OBSERVED_PROPERTY: pIC50

O=c1[nH]nc2c3c(cccc13)N=C(CN1Cc3ccccc3C1)N2; 5.49

###

- Test system: HepG2
- EXPERIMENT_NOTES: 8-day growth inhibition
- Type: cell-based
- PARTICULARS: HCC, HepG2, 8-day assay
pIC50: −log10 of the molar value.
OBSERVED_PROPERTY: pIC50

O=c1[nH]nc2c3c(cccc13)N=C(CN1Cc3ccccc3C1)N2; 5.42

###

- Test system: HEC-151
- EXPERIMENT_NOTES: 8-day growth inhibition
- Format: cell-based
- PARTICULARS: Endometrial, HEC-151, 8-day assay
pIC50: −log10 of the molar value.
OBSERVED_PROPERTY: pIC50

O=c1[nH]nc2c3c(cccc13)N=C(CN1Cc3ccccc3C1)N2 [E7449]; 5.84

###

- Test system: RL95-2
- EXPERIMENT_NOTES: 8-day growth inhibition
- Format: cell-based
- PARTICULARS: Endometrial, RL95-2, 8-day assay
OBSERVED_PROPERTY: IC50

O=c1[nH]nc2c3c(cccc13)N=C(CN1Cc3ccccc3C1)N2; 2130 nM

###

- Test system: AN3 CA
- EXPERIMENT_NOTES: 8-day growth inhibition
- Type: cell-based
- PARTICULARS: Endometrial, 8-day assay
OBSERVED_PROPERTY: IC50 (nM)

O=c1[nH]nc2c3c(cccc13)N=C(CN1Cc3ccccc3C1)N2 [E7449]; 1490

###

- Tested on: HEC-251
- EXPERIMENT_NOTES: 8-day growth inhibition
- Type: cell-based
- PARTICULARS: Endometrial, HEC-251, 8-day assay
OBSERVED_PROPERTY: IC50 (nM)

O=c1[nH]nc2c3c(cccc13)N=C(CN1Cc3ccccc3C1)N2; 1260

###

- Tested on: HCC70
- EXPERIMENT_NOTES: 8-day growth inhibition
- Format: cell-based
- PARTICULARS: Breast, HCC70, 8-day assay
pIC50: −log10 of the molar value.
OBSERVED_PROPERTY: pIC50

O=c1[nH]nc2c3c(cccc13)N=C(CN1Cc3ccccc3C1)N2; 5.03
